Measurement notes: Ratio of AUC in Lung to plasma in Swiss mouse at 3 mg/kg, iv measured upto 24 hrs by LC-MS/MS analysis
Assay type: ADME, organism-based
Reported conditions: read-out: Ratio AUC
Quantity: Kp at 24 h
Answers are plain numbers.

Please give the measured Kp at 24 h for this molecule: CO[C@@H](CNC(=O)[C@H](NC(=O)[C@H](O)[C@H](C)O)[C@H](O)c1cncn1C)[C@H](O)[C@H](O)C(=O)N(C)[C@@H](Cc1ccccc1)C(=O)NCC(=O)N[C@H](C(=O)N[C@@H](CO)C(=O)N[C@H](C(=O)N[C@H](C(=O)N[C@@H](CC(=O)O)C(=O)N1CCC[C@H]1C(=O)NCc1cc(=O)c(O)cn1O)C(C)(C)C)C(C)(C)O)C(C)(C)O
0.4

----------
Measurement notes: Observed clearance Swiss mouse at 3 mg/kg, iv measured upto 24 hrs by LC-MS/MS analysis
Format: ADME, organism-based
Reported conditions: in vivo
Quantity: clearance (mL/min/kg)
Answers are plain numbers, in mL/min/kg.

Please give the measured clearance for this compound: CO[C@@H](CNC(=O)[C@H](NC(=O)[C@H](O)[C@H](C)O)[C@H](O)c1cncn1C)[C@H](O)[C@H](O)C(=O)N(C)[C@@H](Cc1ccccc1)C(=O)NCC(=O)N[C@H](C(=O)N[C@@H](CO)C(=O)N[C@H](C(=O)N[C@H](C(=O)N[C@@H](CC(=O)O)C(=O)N1CCC[C@H]1C(=O)NCc1cc(=O)c(O)cn1O)C(C)(C)C)C(C)(C)O)C(C)(C)O
13.5

----------
Measurement notes: Metabolic stability in mouse lung assessed as parent compound remaining measured after 1 hrs by UPLC-MS analysis
Type: ADME, tissue-based
Reported conditions: mouse lung, read-out: Stability
Field: remaining at 1 h. Provide a value for each of the molecules that follow.
One number for each entry, in %.

- Compound structure string: "CO[C@@H](CNC(=O)[C@H](NC(=O)[C@H](O)[C@H](C)O)[C@H](O)c1cncn1C)[C@H](O)[C@H](O)C(=O)N(C)[C@@H](Cc1ccccc1)C(=O)NCC(=O)N[C@H](C(=O)N[C@@H](CO)C(=O)N[C@H](C(=O)N[C@H](C(=O)N[C@@H](CO)C(=O)N[C@@H](CCC(=O)NCc1cc(=O)c(O)cn1O)C(=O)O)C(C)(C)C)C(C)(C)O)C(C)(C)O"
  Numeric result: 91

Please give the measured remaining at 1 h for this molecule: CO[C@@H](CNC(=O)[C@H](NC(=O)[C@H](O)[C@H](C)O)[C@H](O)c1cncn1C)[C@H](O)[C@H](O)C(=O)N(C)[C@@H](Cc1ccc(F)cc1)C(=O)NCC(=O)N[C@H](C(=O)N[C@@H](CO)C(=O)N[C@H](C(=O)N[C@H](C(=O)N[C@@H](CCC(=O)NCc1cc(=O)c(O)cn1O)C(=O)NCCN)C(C)(C)C)C(C)(C)O)C(C)(C)O
88

----------
Measurement notes: Aqueous solubility of compound in PBS at pH 7.4
Assay type: physicochemical
Numbered stars: 1 amine (or outer) side, 2 acyl side, 3 side chain; on linkers, the order of the positions; unused ones are H or OH. Square brackets hold non-standard residues; d marks the D form. Peptide text beside a SMILES is read from it. * marks the point of attachment. Ava(2S,3R-(OH)2,4S-OMe) = CO[C@@H](CN[*:1])[C@H](O)[C@H](O)C(=O)[*:2]; dHis(βS-OH,π-Me) = Cn1cncc1[C@@H](O)[C@@H](N)C(=O)O; Butanoyl(2R-OH,3S-OH) = C[C@H](O)[C@@H](O)C(=O)*; Val(3-OH) = CC(C)(O)[C@H](N)C(=O)O; NMeF = CN[C@@H](Cc1ccccc1)C(=O)O
Quantity: solubility (mg/mL)
Answers are plain numbers, in mg/mL.

Please give the measured solubility for this compound: CO[C@@H](CNC(=O)[C@H](NC(=O)[C@H](O)[C@H](C)O)[C@H](O)c1cncn1C)[C@H](O)[C@H](O)C(=O)N(C)[C@@H](Cc1ccccc1)C(=O)NCC(=O)N[C@H](C(=O)N[C@@H](CO)C(=O)N[C@H](C(=O)N[C@@H](CC(C)C)C(=O)N[C@@H](CO)C(=O)O)C(C)(C)O)C(C)(C)O ({Butanoyl(2R-OH,3S-OH)}-[dHis(βS-OH,π-Me)][Ava(2S,3R-(OH)2,4S-OMe)][NMeF]G[Val(3-OH)]S[Val(3-OH)]LS-OH)
2.8
